- target under test: native human MET on living cells (human, UniProt P08581 25-1390)
- Sequence (P08581 25-1390): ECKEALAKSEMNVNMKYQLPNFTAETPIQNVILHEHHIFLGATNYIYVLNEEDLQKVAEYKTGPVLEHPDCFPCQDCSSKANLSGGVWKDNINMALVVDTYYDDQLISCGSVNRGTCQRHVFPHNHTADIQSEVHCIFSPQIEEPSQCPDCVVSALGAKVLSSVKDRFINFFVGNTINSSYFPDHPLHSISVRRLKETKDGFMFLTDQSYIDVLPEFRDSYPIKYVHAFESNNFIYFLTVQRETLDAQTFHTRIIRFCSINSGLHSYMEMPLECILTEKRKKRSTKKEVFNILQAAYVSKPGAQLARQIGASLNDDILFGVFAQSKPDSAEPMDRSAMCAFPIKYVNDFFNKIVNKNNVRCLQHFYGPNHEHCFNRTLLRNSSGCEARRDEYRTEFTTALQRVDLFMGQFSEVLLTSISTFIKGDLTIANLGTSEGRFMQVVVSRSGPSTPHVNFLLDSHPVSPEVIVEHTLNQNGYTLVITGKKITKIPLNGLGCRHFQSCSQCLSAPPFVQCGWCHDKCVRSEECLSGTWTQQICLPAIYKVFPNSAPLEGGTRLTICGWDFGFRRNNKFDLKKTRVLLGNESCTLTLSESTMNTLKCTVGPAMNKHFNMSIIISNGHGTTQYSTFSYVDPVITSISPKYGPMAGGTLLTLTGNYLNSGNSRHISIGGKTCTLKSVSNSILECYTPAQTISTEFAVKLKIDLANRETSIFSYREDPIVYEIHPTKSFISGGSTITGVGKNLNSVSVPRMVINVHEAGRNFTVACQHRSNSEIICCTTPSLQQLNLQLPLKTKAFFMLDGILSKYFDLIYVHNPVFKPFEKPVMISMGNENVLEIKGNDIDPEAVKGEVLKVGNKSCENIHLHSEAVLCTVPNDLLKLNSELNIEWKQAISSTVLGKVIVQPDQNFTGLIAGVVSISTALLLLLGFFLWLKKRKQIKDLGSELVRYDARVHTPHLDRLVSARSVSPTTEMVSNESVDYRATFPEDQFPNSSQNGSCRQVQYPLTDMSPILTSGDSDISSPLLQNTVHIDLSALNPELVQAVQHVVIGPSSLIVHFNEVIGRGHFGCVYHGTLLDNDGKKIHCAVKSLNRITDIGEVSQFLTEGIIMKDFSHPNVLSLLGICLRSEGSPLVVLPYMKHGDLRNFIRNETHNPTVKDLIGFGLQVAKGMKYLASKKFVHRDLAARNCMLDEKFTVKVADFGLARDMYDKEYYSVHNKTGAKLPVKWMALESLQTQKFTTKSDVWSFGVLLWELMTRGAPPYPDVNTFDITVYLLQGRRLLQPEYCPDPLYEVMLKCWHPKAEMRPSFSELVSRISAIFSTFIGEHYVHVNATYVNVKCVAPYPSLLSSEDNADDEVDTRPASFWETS
- method: cell-based or functional assay
measurement label: phospho-MET ELISA EC50, A549 cells (nM)
Numbers only here, please. The scale is nM.

Use the examples below as a reference point.
{"columns": ["binder", "measurement label", "unit of measure", "quantitative result"],
 "data": [
  ["72F8 chimeric llama-human IgG1 mAb (antibody, V domains shown, llama VH on human IgG1 CH1-CH2-CH3, llama VL on human lambda CL) VH: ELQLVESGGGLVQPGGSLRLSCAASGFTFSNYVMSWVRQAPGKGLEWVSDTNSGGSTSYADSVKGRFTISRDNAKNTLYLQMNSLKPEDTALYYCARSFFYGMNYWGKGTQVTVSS VL: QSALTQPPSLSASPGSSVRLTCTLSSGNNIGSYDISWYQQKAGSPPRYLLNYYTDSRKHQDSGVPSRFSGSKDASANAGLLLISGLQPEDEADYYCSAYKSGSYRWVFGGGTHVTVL", "phospho-MET ELISA EC50, A549 cells", "nM", 1.51],
  ["76H10 chimeric llama-human IgG1 mAb (antibody, V domains shown, llama VH on human IgG1 CH1-CH2-CH3, llama VL on human lambda CL) VH: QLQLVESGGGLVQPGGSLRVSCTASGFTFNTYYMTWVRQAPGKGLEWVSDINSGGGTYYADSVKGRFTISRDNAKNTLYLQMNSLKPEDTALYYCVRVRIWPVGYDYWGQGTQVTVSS VL: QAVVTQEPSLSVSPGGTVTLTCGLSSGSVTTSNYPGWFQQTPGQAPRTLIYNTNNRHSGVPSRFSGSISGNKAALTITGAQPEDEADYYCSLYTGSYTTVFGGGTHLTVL", "phospho-MET ELISA EC50, A549 cells", "nM", 1.77]
]}

Please find the next binder below.
### Prompt phospho-MET ELISA EC50, A549 cells for 71G3 chimeric llama-human IgG1 mAb (antibody, V domains shown, llama VH on human IgG1 CH1-CH2-CH3, llama VL on human lambda CL) VH: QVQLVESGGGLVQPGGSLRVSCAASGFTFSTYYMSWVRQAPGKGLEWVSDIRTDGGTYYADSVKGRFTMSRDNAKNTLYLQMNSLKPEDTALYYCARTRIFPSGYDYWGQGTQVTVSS VL: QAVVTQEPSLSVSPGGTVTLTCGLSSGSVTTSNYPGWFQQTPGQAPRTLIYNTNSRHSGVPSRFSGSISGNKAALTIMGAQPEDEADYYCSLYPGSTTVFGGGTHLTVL ?
### Response 0.41
